# Target system: human FRs (KB cells) (Homo sapiens, UniProt P15328)
# Construct: endogenous in cells; host or cells: KB cells
# Sequence (P15328 25-234): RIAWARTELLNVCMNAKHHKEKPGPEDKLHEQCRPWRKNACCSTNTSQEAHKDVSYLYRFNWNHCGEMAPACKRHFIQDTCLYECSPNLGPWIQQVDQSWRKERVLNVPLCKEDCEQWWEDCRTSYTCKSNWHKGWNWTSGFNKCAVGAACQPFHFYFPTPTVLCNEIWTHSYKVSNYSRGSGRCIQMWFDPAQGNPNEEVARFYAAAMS
# Run description: Cell-Based Relative Affinity Assay (competition with 3H-FA on adherent KB cells)
# Assay type: binding
# Condition notes: Table 1; KB cells, 0° C.; FA = 1
Provide the reported Relative Binding Affinity (0° C.) of each item.
One number for each entry.

## Task What value of measured Relative Binding Affinity (0° C.) is listed for Nc1nc2c(c(=O)[nH]1)N(C=O)C(CNc1ccc(C(=O)N[C@@H](CCC(=O)O)C(=O)O)cc1)CN2 (stereo partly shown) [5-formyl-tetrahydrofolate, 5-formyltetrahydrofolate] ?
## Result 0.15

Give Relative Binding Affinity (0° C.) for each listed item.
1. Nc1nc2[nH]cc(CCc3ccc(C(=O)N[C@@H](CCC(=O)O)C(=O)O)cc3)c2c(=O)[nH]1 [Pemetrexed]
2. CN(Cc1cnc2nc(N)[nH]c(=N)c2n1)c1ccc(C(=O)N[C@@H](CCC(=O)O)C(=O)O)cc1 [Methotrexate]
3. Nc1nc2ncc(CNc3ccc(C(=O)O)cc3)nc2c(=O)[nH]1 [Pteroic Acid]

## Result
1: 0.26; 2: 0.000; 3: 0.42

###

# Target system: human FRs (KB cells) (Homo sapiens, UniProt P15328)
# Construct: endogenous in cells; host or cells: KB cells
# Run description: Cell-Based Relative Affinity Assay (competition with 3H-FA on adherent KB cells)
# Type: binding
# Condition notes: Table 1; adherent KB cells, 10% serum, 37° C.; FA = 1
Readout: Relative Binding Affinity (37° C.)
Numbers only.

## Task What value of measured Relative Binding Affinity (37° C.) is listed for Nc1nc2[nH]cc(CCc3ccc(C(=O)N[C@@H](CCC(=O)O)C(=O)O)cc3)c2c(=O)[nH]1 ?
## Result 0.002

## Task What value of measured Relative Binding Affinity (37° C.) is listed for Nc1nc2c(c(=O)[nH]1)N(C=O)C(CNc1ccc(C(=O)N[C@@H](CCC(=O)O)C(=O)O)cc1)CN2 (some centres unmarked) [5-formyl-tetrahydrofolate, 5-formyltetrahydrofolate] ?
## Result 0.008

## Task What value of measured Relative Binding Affinity (37° C.) is listed for Nc1nc2ncc(C(=O)O)nc2c(=O)[nH]1 [Pterin-6-carboxylate] ?
## Result 0.000

Give Relative Binding Affinity (37° C.) for each listed item.
1. C#CCN(Cc1ccc2nc(N)[nH]c(=O)c2c1)c1ccc(C(=O)N[C@@H](CCC(=O)O)C(=O)O)cc1
2. C#CCN(Cc1ccc2nc(N)[nH]c(=O)c2c1)c1ccc(C(=O)O)cc1
3. CN1c2c(nc(N)[nH]c2=O)NCC1CNc1ccc(C(=O)N[C@@H](CCC(=O)O)C(=O)O)cc1 (some centres unmarked) [5-methyl-tetrahydrofolate, 5-methyltetrahydrofolate]
4. Nc1nc2ncc(CNc3ccc(C(=O)O)cc3)nc2c(=O)[nH]1
5. CN(Cc1cnc2nc(N)[nH]c(=N)c2n1)c1ccc(C(=O)N[C@@H](CCC(=O)O)C(=O)O)cc1 [Methotrexate]

## Result
1: 1.000; 2: 0.002; 3: 0.070; 4: 0.011; 5: 0.018

###

# Target system: human FRs (KB cells) (Homo sapiens)
# Construct: endogenous in cells; host or cells: KB cells
# Run description: Cell-Based Relative Affinity Assay (competition with 3H-FA on adherent KB cells)
# Format: binding
# Condition notes: Table 2; adherent KB cells, 10% serum, 37° C.; FA = 1
Classification field: enter condition met for Relative Binding Affinity (37° C.) values not below 0.5, condition not met for values below it.

## Task hey, is Relative Binding Affinity (37° C.) for this one >= 0.5? CO[C@@]12[C@H](COC(N)=O)C3=C(C(=O)C(C)=C(NCCSSC[C@H](NC(=O)CC[C@@H](NC(=O)c4ccc(NCc5cnc6nc(N)[nH]c(=O)c6n5)cc4)C(=O)O)C(=O)O)C3=O)N1C[C@@H]1N[C@@H]12
## Result condition met

## Task hey, is Relative Binding Affinity (37° C.) for this one >= 0.5? Nc1nc2ncc(CNc3ccc(C(=O)N[C@@H](CCC(=O)NCCNC(=S)Nc4ccc(-c5c6ccc(=O)cc-6oc6cc(O)ccc56)c(C(=O)O)c4)C(=O)O)cc3)nc2c(=O)[nH]1
## Result condition not met

## Task hey, is Relative Binding Affinity (37° C.) for this one >= 0.5? CC[C@]1(O)CC2CN(CCc3c([nH]c4ccccc34)[C@@](C(=O)OC)(c3cc4c(cc3OC)N(C)[C@H]3[C@@](O)(C(=O)NNC(=O)OCCSSC[C@H](NC(=O)c5ccc(NCc6cnc7nc(N)[nH]c(=O)c7n6)cc5)C(=O)O)[C@H](O)[C@]5(CC)C=CCN6CC[C@]43[C@@H]65)C2)C1 (some centres unmarked)
## Result condition not met

Next:
## Task hey, is Relative Binding Affinity (37° C.) for this one >= 0.5? Nc1nc2ncc(CNc3ccc(C(=O)N[C@@H](CCC(=O)NC[C@H](N)C(=O)N[C@@H](CC(=O)O)C(=O)N[C@@H](CS)C(=O)O)C(=O)O)cc3)nc2c(=O)[nH]1
## Result condition met
